system: M. morganii (1 strain), Ent. cloacae (2 strains) and Ser. marcescens (2 strains); experiment: MIC, two-fold serial agar dilution, group (G-)-II; format: cell-based; conditions: (G-)-II, 5 strains, Mueller-Hinton agar; read-out: Geometric Mean of MIC
Documented MIC across a set of compounds
Express the result in µg/mL but write the number alone.

Known results for compounds:
>  <compound>
CNC(=O)Nc1nc2c[n+](CC3=C(C(=O)[O-])N4C(=O)C(NC(=O)/C(=N\OC)c5csc(N)n5)[C@H]4SC3)ccc2s1 (stereo partly drawn)

>  <MIC / µg/mL>
0.52

$$$$
>  <compound>
CO/N=C(\C(=O)NC1C(=O)N2C(C(=O)[O-])=C(C[n+]3ccc4sc(C(=O)O)nc4c3)CS[C@H]12)c1csc(N)n1 (stereo partly drawn)

>  <MIC / µg/mL>
0.69

$$$$

Switching to the query record.
(Q) Tell me the measured MIC of CO/N=C(\C(=O)NC1C(=O)N2C(C(=O)[O-])=C(C[n+]3ccc4sc(NC(C)=O)nc4c3)CS[C@H]12)c1csc(N)n1 (stereo partly drawn) , please.
(A) 0.68

----------
test: Mouse blood levels after single intramuscular injection; format: in vivo, mice; details: in vivo, im, 20 mg/kg
Documented concentration at 40 min across a set of molecules
Express the result in ng/mL but write the number alone.

>  <molecule>
Cc1nc2c[n+](CC3=C(C(=O)[O-])N4C(=O)C(NC(=O)/C(=N\OC5(C(=O)O)CCC5)c5csc(N)n5)[C@H]4SC3)ccc2s1 (some centres unmarked)

>  <measure-name>
concentration at 40 min

>  <value-measured>
4800

$$$$
>  <molecule>
CO/N=C(\C(=O)NC1C(=O)N2C(C(=O)[O-])=C(C[n+]3ccc4sc(N(C)C)nc4c3)CS[C@H]12)c1csc(N)n1 (some centres unmarked)

>  <measure-name>
concentration at 40 min

>  <value-measured>
5500

$$$$
>  <molecule>
C#CCO/N=C(\C(=O)NC1C(=O)N2C(C(=O)[O-])=C(C[n+]3ccc4sc(N)nc4c3)CS[C@H]12)c1csc(N)n1 (some centres unmarked)

>  <measure-name>
concentration at 40 min

>  <value-measured>
4200

$$$$
>  <molecule>
CO/N=C(\C(=O)NC1C(=O)N2C(C(=O)[O-])=C(C[n+]3ccc4sc(N)nc4c3)CSC12)c1csc(N)n1 (centres unmarked)

>  <measure-name>
concentration at 40 min

>  <value-measured>
7000

$$$$

(Q) Tell me the measured concentration at 40 min of CO/N=C(\C(=O)NC1C(=O)N2C(C(=O)[O-])=C(C[n+]3ccc4sc(SC)nc4c3)CSC12)c1csc(N)n1 (centres unmarked) , please.
(A) 4800

----------
test system: P. aeruginosa A9843; test: Median protective dose in infected mice; type: in vivo; details: Pseudomonas aeruginosa, im, immediately after intraperitoneal challenge, read-out: PD50
Documented ED50 across a set of molecules
Express the result in mg/kg but write the number alone.

>  <molecule>
CO/N=C(\C(=O)NC1C(=O)N2C(C(=O)[O-])=C(C[n+]3ccc4sc(C(=O)O)nc4c3)CS[C@H]12)c1csc(N)n1 (some centres unmarked)

>  <value-measured>
21

$$$$

(Q) Tell me the measured ED50 of CO/N=C(\C(=O)NC1C(=O)N2C(C(=O)[O-])=C(C[n+]3ccc4sc(C=O)nc4c3)CSC12)c1csc(N)n1 (centres unmarked) , please.
(A) 4.7

(Q) Tell me the measured ED50 of CO/N=C(\C(=O)NC1C(=O)N2C(C(=O)[O-])=C(C[n+]3ccc4sc(N)nc4c3)CSC12)c1csc(N)n1 (centres unmarked) , please.
(A) 2.8

(Q) Tell me the measured ED50 of C=CCO/N=C(\C(=O)NC1C(=O)N2C(C(=O)[O-])=C(C[n+]3ccc4scnc4c3)CSC12)c1csc(N)n1 (centres unmarked) , please.
(A) 8.6

(Q) Tell me the measured ED50 of CO/N=C(\C(=O)NC1C(=O)N2C(C(=O)[O-])=C(C[n+]3ccc4sc(N(C)C)nc4c3)CS[C@H]12)c1csc(N)n1 (some centres unmarked) , please.
(A) 4.6

(Q) Tell me the measured ED50 of CO/N=C(\C(=O)NC1C(=O)N2C(C(=O)[O-])=C(C[n+]3ccc4sc(NC(=O)CN)nc4c3)CS[C@H]12)c1csc(N)n1 (some centres unmarked) , please.
(A) 12

(Q) Tell me the measured ED50 of CC(C)(O/N=C(\C(=O)NC1C(=O)N2C(C(=O)[O-])=C(C[n+]3ccc4scnc4c3)CS[C@H]12)c1csc(N)n1)C(=O)O (some centres unmarked) , please.
(A) 4.3

----------
assay: Mouse blood levels after single intramuscular injection; assay type: in vivo, mice; conditions: in vivo, im, 20 mg/kg
Documented half-life across a set of compounds
Express the result in min but write the number alone.

Known results for compounds:
>  <compound>
C#CCO/N=C(\C(=O)NC1C(=O)N2C(C(=O)[O-])=C(C[n+]3ccc4sc(N)nc4c3)CS[C@H]12)c1csc(N)n1 (stereo partly drawn)

>  <unit-of-measurement>
min

>  <value-measured>
34

$$$$
>  <compound>
Nc1nc(/C(=N/OC2(C(=O)O)CCC2)C(=O)NC2C(=O)N3C(C(=O)[O-])=C(C[n+]4ccc5scnc5c4)CS[C@H]23)cs1 (stereo partly drawn)

>  <unit-of-measurement>
min

>  <value-measured>
16

$$$$

(Q) Tell me the measured half-life of CCO/N=C(\C(=O)NC1C(=O)N2C(C(=O)[O-])=C(C[n+]3ccc4scnc4c3)CSC12)c1csc(N)n1 (stereo not drawn) , please.
(A) 19
